# protocol: Evaluation of conversion rate to active form in buffer solution (Experimental Example 1)
# Format: physicochemical
# measurement-parameters: pH7.4, 0.5 hr, 37° C., 25 umol/L in buffer solution
# key: entry, value: Residual rate

{"compound": "CN1CC[C@H](c2c(OC(=O)N(C)C[C@H]3CCCCN3)cc(O)c3c(=O)cc(-c4ccccc4Cl)oc23)[C@H](O)C1 [Example 4]", "value-unit": "%", "Residual rate": 21.5}
{"compound": "CN1CC[C@H](c2c(OC(=O)N(Cc3ccccc3)CC3CCCCN3)cc(O)c3c(=O)cc(-c4ccccc4Cl)oc23)[C@H](O)C1 (stereo partly shown) [Example 15]", "value-unit": "%", "Residual rate": 21.1}
{"compound": "CN1CC[C@H](c2c(OC(=O)N(C)C[C@@H]3CCCCN3)cc(O)c3c(=O)cc(-c4ccccc4Cl)oc23)[C@H](O)C1 [Example 3]", "value-unit": "%", "Residual rate": 49.4}
{"compound": "CC(C)N(CC1CCCCN1)C(=O)Oc1cc(O)c2c(=O)cc(-c3ccccc3Cl)oc2c1[C@H]1CCN(C)C[C@H]1O (stereo partly shown) [Example 10]", "value-unit": "%", "Residual rate": 46.5}
